Value source: patent US9487489B2

Listing of recorded efficacy (kill in %) by entry.
Test system: L1 larvae of the Australian sheep blowfly (Lucilia cuprina)
protocol: Lucilia cuprina test (LUCICU)
Assay type: in vivo
run-parameters: application rate 100 ppm; after 2 days
quantity-measured: efficacy (kill in %)

Cn1nc(C(F)(F)C(F)(F)F)c(C(F)(F)F)c1-n1ccc(-c2ccc(Cl)c(C(=O)NC3CC3)c2)n1 [Id-2]	95
Cn1nc(C(F)(F)C(F)(F)F)c(C(F)(F)F)c1-n1cc(-c2ccc(Cl)c(C(=O)NC3(C#N)CC3)c2)cn1 [Ic-2]	100
Cn1nc(C(F)(F)C(F)(F)F)c(C(F)(F)F)c1-n1cc(-c2cc(F)c(F)c(C(=O)NC3(C#N)CC3)c2)cn1 [Ic-47]	100
COc1ccc(-c2cnn(-c3c(C(F)(F)F)c(C(F)(F)C(F)(F)F)nn3C)c2)cc1C(=O)NC1(C#N)CC1 [Ic-67]	100
Cc1cc(C(=O)NC2CC2)cc(-c2cnn(-c3c(C(F)(F)F)c(C(F)(F)C(F)(F)F)nn3C)c2)c1 [Ic-54]	100
COc1cc(C(=O)NC2(C#N)CC2)cc(-c2cnn(-c3c(C(F)(F)F)c(C(F)(F)C(F)(F)F)nn3C)c2)c1 [Ic-63]	100
Cc1cc(-c2cnn(-c3c(C(F)(F)F)c(C(F)(F)C(F)(F)F)nn3C)c2)cc(C(=O)NC2CC2)c1Cl [Ic-90]	100
Cc1ncc(-c2cnn(-c3c(C(F)(F)F)c(C(F)(F)C(F)(F)F)nn3C)c2)cc1C(=O)NC1(C#N)CC1 [Ic-85]	100
Cc1c(-c2ccc(Cl)c(C(=O)NC3CC3)c2)cnn1-c1c(C(F)(F)F)c(C(F)(F)C(F)(F)F)nn1C [Ic-13]	100

---

Test system: adult castor bean ticks (Ixodes ricinus)
protocol: Ixodes ricinus in vitro contact test with adult castor bean ticks (T3)
run-parameters: application rate 5 μg/cm^2; after 48 h
Entries annotated with measured efficacy (dead or moribund ticks)
quantity-measured: efficacy (dead or moribund ticks) (%)

Cn1nc(C(F)(F)C(F)(F)F)c(C(F)(F)F)c1-n1cc(-c2ccc(Cl)c(C(=O)NC3(C(N)=S)CC3)c2)cn1	100
Cn1nc(C(F)(F)C(F)(F)F)c(C(F)(F)F)c1-n1ccc(-c2ccc(Cl)c(C(=O)NC3(C#N)CC3)c2)c1	100
Cc1ncc(-c2cnn(-c3c(C(F)(F)F)c(C(F)(F)C(F)(F)F)nn3C)c2)cc1C(=O)NC1CC1	100
COc1ncc(-c2cnn(-c3c(C(F)(F)F)c(C(F)(F)C(F)(F)F)nn3C)c2)cc1C(=O)NC1(C#N)CC1	100
Cn1nc(C(F)(F)C(F)(F)F)c(C(F)(F)F)c1-n1cc(-c2cc(Cl)c(Cl)c(C(=O)NC3CC3)c2)cn1	100
Cn1nc(C(F)(F)C(F)(F)F)c(C(F)(F)F)c1-n1cc(-c2cnc(Cl)c(C(=O)NC3(C#N)CC3)c2)cn1	100
COc1ncc(-c2cnn(-c3c(C(F)(F)F)c(C(F)(F)C(F)(F)F)nn3C)c2)cc1C(=O)NC1CC1	100
Cn1nc(C(F)(F)C(F)(F)F)c(C(F)(F)F)c1-n1ccc(-c2ccc(Cl)c(C(=O)NC3CC3)c2)c1	100

---

protocol: logP determination by HPLC on a reversed-phase column (C18), EEC Directive 79/831 Annex V.A8
Type: physicochemical
run-parameters: HPLC on reversed-phase column (C18), acetonitrile/water with formic acid, EEC Directive 79/831 Annex V.A8
Classify by measured logP: label 1 if it is equal to or exceeds 4, label 0 if it is smaller.

Cn1nc(C(F)(F)C(F)(F)F)c(C(F)(F)F)c1-n1cc(-c2ccc(C(F)(F)F)c(C(=O)NC3(C#N)CC3)c2)cn1	label 0
Cn1nc(C(F)(F)C(F)(F)F)c(C=O)c1-n1cc(-c2ccc(Cl)c(C(=O)NC3(C#N)CC3)c2)cn1	label 0
Cn1nc(C(F)(F)C(F)(F)F)c(C(F)(F)F)c1-n1cc(-c2cc(F)c(Cl)c(C(=O)NC3(C#N)CC3)c2)cn1	label 0
Cn1nc(C(F)(F)C(F)(F)F)c(C(F)(F)F)c1-n1cc(-c2ccc(Cl)c(C(=O)NCC=CCl)c2)cn1	label 1
Cn1nc(C(F)(F)C(F)(F)F)c(C(F)(F)F)c1-n1cc(-c2ccc(Cl)c(C(=O)NC3CC3F)c2)cn1 (centres unmarked)	label 0
Cn1nc(C(F)(F)C(F)(F)F)c(C(F)(F)F)c1-n1cc(-c2ccc(Cl)c(C(=O)NC3(C(N)=O)CC3)c2)cn1	label 0
Cn1nc(C(F)(F)C(F)(F)F)c(C(F)(F)F)c1-n1cc(-c2ccc(Cl)c(C(=O)NC3CC3C(F)(F)F)c2)cn1 (centres unmarked)	label 1
Cn1nc(C(F)(F)C(F)(F)F)c(C(F)(F)F)c1-n1cc(-c2ccc(Cl)c(C(=O)NC3(C)CC3)c2)cn1	label 1
CNC(=O)C1(N(C)C(=O)c2cc(-c3cnn(-c4c(C(F)(F)F)c(C(F)(F)C(F)(F)F)nn4C)c3)ccc2Cl)CC1	label 0
Cn1nc(C(F)(F)F)c(C(F)(F)F)c1-n1cc(-c2ccc(Cl)c(C(=O)NCC(F)(F)F)c2)cn1	label 0
Cn1nc(C(F)(F)C(F)(F)F)c(C(F)(F)F)c1-n1cc(-c2ccc(Cl)c(C(=O)NCCF)c2)cn1	label 0
